For each entry below, report its pEC50 value.
- experimental target: GLP-1R (Homo sapiens, UniProt P43220)
- Sequence (P43220 24-463): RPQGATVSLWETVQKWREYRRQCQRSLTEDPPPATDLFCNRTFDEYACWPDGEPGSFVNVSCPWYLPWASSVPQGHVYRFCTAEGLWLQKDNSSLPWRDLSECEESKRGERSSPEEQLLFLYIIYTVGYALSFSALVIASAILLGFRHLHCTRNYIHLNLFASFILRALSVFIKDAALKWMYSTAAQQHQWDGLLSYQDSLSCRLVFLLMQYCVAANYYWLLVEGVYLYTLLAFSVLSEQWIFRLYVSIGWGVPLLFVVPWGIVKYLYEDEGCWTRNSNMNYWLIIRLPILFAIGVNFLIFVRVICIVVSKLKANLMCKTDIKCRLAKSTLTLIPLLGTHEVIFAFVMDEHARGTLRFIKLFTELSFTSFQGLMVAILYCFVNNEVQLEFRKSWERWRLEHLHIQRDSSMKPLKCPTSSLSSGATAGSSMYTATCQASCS
- Sequence (P01275 100-127 partner limits assumed): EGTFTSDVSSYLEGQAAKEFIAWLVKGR
- method notes: EC20 GLP-1(9-36) PAM cAMP assay: dose response of compound in the presence of fixed concentration of GLP-1(9-36)
- reported conditions: GLP-1R CRE-bla CHO-K1 cells, compound dose response with fixed GLP-1(9-36), 30 min at 37° C.
- Source text: EC20 GLP-1(9-36) PAM cAMP assay: dose response of compound in the presence of fixed concentration of GLP-1 (9-36). […]
pEC50: −log10 of the molar value.

Per the records, this compound ( CCCCCCCOc1ccc(-c2cnc(-c3ccc(C[C@H](NC(=O)c4ccc(C(C)(C)C)s4)C(=O)N[C@H]4CCC[C@H]4C(=O)O)cc3)nc2)cc1 [Compound 382] ) has pEC50 equal to 5.60 to 6.10

Per the records, this compound ( CCCCCCCOc1ccc(-c2cnc(-c3ccc(C[C@H](NC(=O)c4ccc(C(C)(C)C)cc4)C(=O)NC(CCS(C)(=O)=O)C(=O)O)cc3)nc2)cc1 (some centres unmarked) [Compound 570] ) has pEC50 equal to > 6.10

Per the records, this compound ( CCCCCCCOc1ccc(-c2cnc(-c3ccc(C[C@H](NC(=O)c4ccc(C(C)(C)C)s4)C(=O)NC(C(=O)O)c4ccc(C)cc4)cc3)nc2)cc1 (some centres unmarked) [Compound 617] ) has pEC50 equal to > 6.10

Per the records, this compound ( CCCCCCCOc1ccc(-c2cnc(-c3ccc(C[C@H](NC(=O)c4ccc(C(C)(C)C)cc4)C(=O)NC[C@H]4CCNC4)cc3)nc2)cc1 [Compound 413] ) has pEC50 equal to 5.00 to 5.30

Per the records, this compound ( C[C@@H](NC(=O)[C@H](Cc1ccc(-c2ncc(-c3ccc(OCc4ccccc4)cc3F)cn2)cc1)NC(=O)c1ccc(C(C)(C)C)s1)C(=O)O [Compound 1024] ) has pEC50 equal to 5.60 to 6.10

---

- experimental target: GLP-1R (Homo sapiens, UniProt P43220)
- method notes: EC20 GLP-1(9-36) PAM cAMP assay: dose response of compound in the presence of fixed concentration of GLP-1(9-36)
- reported conditions: GLP-1R CRE-bla CHO-K1 cells, compound dose response with fixed GLP-1(9-36), 30 min at 37° C.
pEC50: −log10 of the molar value.
property label: pEC50

Query CCCCCCCOc1ccc(-c2cnc(-c3ccc(C[C@H](NC(=O)c4ccc(OC(C)C)cc4)C(=O)N[C@H](C)C(=O)O)cc3)nc2)cc1 [Compound 820] on GLP-1R (Homo sapiens, UniProt P43220); pEC50 returned: 5.30 to 5.60

Query CCCCCCCOc1ccc(-c2cnc(-c3ccc(C[C@H](NC(=O)[C@H]4CC[C@H](C(C)(C)C)CC4)C(=O)N4CC[C@H](C(=O)O)C4)cc3)nc2)cc1 [Compound 858] on GLP-1R (Homo sapiens, UniProt P43220); pEC50 returned: 5.60 to 6.10

Query CCCCCCCOc1ccc(-c2cnc(-c3ccc(C[C@H](NC(=O)c4oc(C(C)(C)C)cc4C)C(=O)N4CC[C@H](C(=O)O)C4)cc3)nc2)cc1 [Compound 866] on GLP-1R (Homo sapiens, UniProt P43220); pEC50 returned: 5.30 to 5.60

Query CCCCCCCOc1ccc(-c2cnc(-c3ccc(C[C@H](NC(=O)c4ccc(C(C)(C)C)cc4)C(=O)N[C@@H](Cc4cn(C)cn4)C(=O)O)cc3)nc2)cc1 [Compound 576] on GLP-1R (Homo sapiens, UniProt P43220); pEC50 returned: 5.60 to 6.10

Query CC(C)(C)CCCOc1ccc(-c2cnc(-c3ccc(C[C@H](NC(=O)c4ccc(C(C)(C)C)s4)C(=O)NC(C(=O)O)C(O)c4ccccc4)cc3)nc2)cc1 (stereo partly drawn) [Compound 944] on GLP-1R (Homo sapiens, UniProt P43220); pEC50 returned: > 6.10

Query CCCCCCCOCCc1ccc(-c2nc(-c3ccc(C(NC(=O)c4ccc(C(C)(C)C)cc4)C(=O)O)cc3)no2)cc1 (stereo not drawn) [Compound 71] on GLP-1R (Homo sapiens, UniProt P43220); pEC50 returned: 5.30 to 5.60

Query CCCC/C=C/COc1ccc(-c2cnc(-c3ccc(C[C@H](NC(=O)c4ccc(C(C)(C)C)cc4)C(=O)NCCC(=O)O)cc3)nc2)cc1 [Compound 715] on GLP-1R (Homo sapiens, UniProt P43220); pEC50 returned: 5.30 to 5.60

Query CCCCCCCOc1ccc(-c2cnc(-c3ccc(C[C@H](NC(=O)c4ccc(OC(F)(F)F)cc4)C(=O)N[C@H](C)C(=O)O)cc3)nc2)cc1 [Compound 821] on GLP-1R (Homo sapiens, UniProt P43220); pEC50 returned: 5.60 to 6.10

Query CCCCCCCOC1CCN(c2cnc(-c3ccc(C[C@H](NC(=O)c4ccc(C(C)(C)C)cc4)C(=O)NCCC(=O)O)cc3)nc2)CC1 [Compound 693] on GLP-1R (Homo sapiens, UniProt P43220); pEC50 returned: 5.00 to 5.30

Query C/C=C/CCCOc1ccc(-c2cnc(-c3ccc(C[C@H](NC(=O)c4ccc(C(C)(C)C)cc4)C(=O)NCCC(=O)O)cc3)nc2)cc1 [Compound 714] on GLP-1R (Homo sapiens, UniProt P43220); pEC50 returned: 5.30 to 5.60

Query CC(C)(C)c1ccc(C(=O)N[C@@H](Cc2ccc(-c3ncc(C4CCC(C(C)(C)C)CC4)cn3)cc2)C(=O)NCCC(=O)O)cc1 (stereo partly drawn) [Compound 674] on GLP-1R (Homo sapiens, UniProt P43220); pEC50 returned: 5.00 to 5.30

Query CCCCCCCOc1ccc(-c2cnc(-c3ccc(C[C@H](NC(=O)c4ccc(C(C)(C)C)s4)C(=O)N[C@@H](CC(=O)NC4CC4)C(=O)O)cc3)nc2)cc1 [Compound 514] on GLP-1R (Homo sapiens, UniProt P43220); pEC50 returned: > 6.10
